Every entry's value here was drawn from paper PMC7156458.

target: Aβ42 (Homo sapiens, UniProt P05067); assay: Th-T (thioflavin-T) assay of Aβ42 aggregation; type: biochemical; settings: reading M124; compound at 10 (head suffix _10)
Sequence (P05067 672-713): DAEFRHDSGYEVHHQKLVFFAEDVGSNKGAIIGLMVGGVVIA
// Th-T fluorescence, mean of three wells (Fig. 7a) lookup, one value per entry
Write no unit; give the number alone.

1. C=C1CC[C@@H]2[C@](C)(CC[C@H]3O[C@H](C=C(C)C)C[C@@]23C)[C@@H]1Cc1c(OC)oc(CO)c(C)c1=O = 3.218
2. C=C1CCC2C(C)(CCC=C(C)C)C(O)CCC2(C)C1Cc1c(OC)oc(CO)c(C(=O)OC)c1=O (centres unmarked) = 1.548
3. C=C1CCC2C(C)(CCC=C(C)C)C(O)CCC2(C)C1Cc1c(OC)oc(C)c(C(=O)OC)c1=O (centres unmarked) = 2.906
4. C=C1CC[C@@H]2[C@](C)(CC[C@H]3O[C@H](C=C(C)C)C[C@@]23C)[C@@H]1Cc1c(OC)oc(CO)c(C(=O)OC)c1=O = 1.705

Moving on to the next molecule.
Th-T fluorescence, mean of three wells (Fig. 7a) on Aβ42 (Homo sapiens, UniProt P05067) for C=C1CCC2C(C)(CCC=C(C)C)C(O)CCC2(C)C1Cc1c(OC)oc(CO)c(C)c1=O (centres unmarked) is 2.48
